Molecular target: EGFR (human)
Conditions: hn5
OUTCOME MEASURE: IC50 (nM)
Response body: numeric value in nM, unit text excluded.

Please review the entries below; each comes with its answer.
Cc1nnc(-c2ccc3ncnc(Nc4ccc5c(cnn5Cc5cccc(F)c5)c4)c3c2)o1
830
CN(CCO)c1cc2c(Nc3ccc4c(cnn4Cc4ccccc4)c3)ncnc2cn1
300
CS(=O)(=O)CCNCc1ccc(-c2ccc3ncnc(Nc4ccc(S(=O)(=O)c5ccccc5)cc4)c3c2)o1
1130

For the next question, use this molecule.
Tell me IC50 of `CS(=O)(=O)CCNCc1ccc(-c2cc3c(Nc4ccc(OCc5ccccc5)cc4)ncnc3cn2)o1` when tested on EGFR (human).
430

====

Here's a batch of compounds along with measured IC50 for EGFR (human) (UniProt P00533).
Response body: numeric value in nM, unit text excluded.

Please review the entries below; each comes with its answer.
Cc1nnc(-c2ccc3ncnc(Nc4ccc5c(cnn5Cc5cccc(F)c5)c4)c3c2)o1
26
CS(=O)(=O)CCNCc1ccc(-c2cc3c(Nc4ccc(OCc5ccccc5)cc4)ncnc3cn2)o1
25

Tell me IC50 of `CN(CCO)c1cc2c(Nc3ccc4c(cnn4Cc4ccccc4)c3)ncnc2cn1` when tested on EGFR (human) (UniProt P00533).
Sequence (P00533 whole entry, looked up): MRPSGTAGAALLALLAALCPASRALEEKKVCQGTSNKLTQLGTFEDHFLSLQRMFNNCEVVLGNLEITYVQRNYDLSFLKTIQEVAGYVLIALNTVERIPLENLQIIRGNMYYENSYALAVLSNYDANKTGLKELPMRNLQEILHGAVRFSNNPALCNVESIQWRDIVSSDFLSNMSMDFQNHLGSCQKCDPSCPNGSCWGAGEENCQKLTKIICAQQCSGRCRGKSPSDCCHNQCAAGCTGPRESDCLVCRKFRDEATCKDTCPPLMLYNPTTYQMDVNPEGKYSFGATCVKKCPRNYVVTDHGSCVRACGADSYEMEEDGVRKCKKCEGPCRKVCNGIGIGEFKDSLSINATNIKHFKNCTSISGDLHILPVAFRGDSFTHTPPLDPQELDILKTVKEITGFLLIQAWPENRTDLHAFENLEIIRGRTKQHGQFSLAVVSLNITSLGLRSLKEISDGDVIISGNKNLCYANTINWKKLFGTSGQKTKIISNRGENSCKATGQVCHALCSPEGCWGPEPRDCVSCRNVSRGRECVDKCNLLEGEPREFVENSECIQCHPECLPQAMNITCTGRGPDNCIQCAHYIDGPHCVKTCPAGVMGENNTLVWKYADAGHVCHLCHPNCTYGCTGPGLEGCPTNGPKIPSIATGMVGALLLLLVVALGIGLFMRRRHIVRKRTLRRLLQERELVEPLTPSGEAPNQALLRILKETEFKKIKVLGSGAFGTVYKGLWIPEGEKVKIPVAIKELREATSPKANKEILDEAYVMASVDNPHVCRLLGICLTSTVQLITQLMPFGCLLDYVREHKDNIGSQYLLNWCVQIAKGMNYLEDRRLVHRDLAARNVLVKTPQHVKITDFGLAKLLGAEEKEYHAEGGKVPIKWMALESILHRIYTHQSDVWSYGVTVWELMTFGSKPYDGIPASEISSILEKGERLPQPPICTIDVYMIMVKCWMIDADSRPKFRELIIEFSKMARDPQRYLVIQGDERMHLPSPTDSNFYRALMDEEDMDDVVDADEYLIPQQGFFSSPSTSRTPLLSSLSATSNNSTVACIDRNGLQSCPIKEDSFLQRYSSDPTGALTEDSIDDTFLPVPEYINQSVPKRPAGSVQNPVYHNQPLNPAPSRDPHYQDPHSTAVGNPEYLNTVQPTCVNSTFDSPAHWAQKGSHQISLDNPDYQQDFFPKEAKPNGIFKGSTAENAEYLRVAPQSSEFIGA
36

Tell me IC50 of `CS(=O)(=O)CCNCc1ccc(-c2ccc3ncnc(Nc4ccc(S(=O)(=O)c5ccccc5)cc4)c3c2)o1` when tested on EGFR (human) (UniProt P00533).
29
